molecular target: MMP-3CD (catalytic domain of stromelysin) (Homo sapiens, UniProt P08254); assay: Thiopeptolide hydrolysis assay, MMP-3; format: biochemical; conditions: Table II; read-out: MMP03 IC50
Sequence (P08254 100-272 limits assumed): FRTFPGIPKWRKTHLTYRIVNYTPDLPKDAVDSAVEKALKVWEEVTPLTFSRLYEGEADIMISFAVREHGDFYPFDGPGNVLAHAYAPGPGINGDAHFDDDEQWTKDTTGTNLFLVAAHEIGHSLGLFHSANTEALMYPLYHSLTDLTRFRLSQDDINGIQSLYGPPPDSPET
pIC50: −log10 of the molar value.
RESULT_TYPE: pIC50

INSERT INTO results (smiles_structure, result_comparator, recorded_result) VALUES
  ('COc1ccc(CNC(=O)c2ccc(OC)c(C(=O)NCc3ccc(OC)cc3)c2)cc1', '=', 4.09),
  ('CCCOc1ccc(C(=O)NCc2ccc3c(c2)OCO3)cc1C(=O)NCc1ccc2c(c1)OCO2', '=', 4.57),
  ('COc1ccc(CNC(=O)c2cccc(C(=O)NCc3ccc(OC)cc3)c2)cc1', '<', 4.00),
  ('O=C(OCc1cccc(F)c1)c1cccc(C(=O)OCc2cccc(F)c2)c1', '<', 4.52),
  ('O=C(O)CN(Cc1ccccc1)C(=O)c1cccc(C(=O)NCc2ccc3c(c2)OCO3)c1', '<', 4.00),
  ('COc1ccc(CNC(=O)c2cccc(C(=O)NCc3cccc(OC)c3)c2)cc1', '=', 4.40),
  ('COc1cccc(CNC(=O)c2cccc(C(=O)NCc3ccc(C)cc3)c2)c1', '=', 4.12),
  ('COc1cccc(COC(=O)c2cccc(C(=O)OCc3cccc(OC)c3)c2)c1', '<', 4.00),
  ('O=C(NCc1ccc(F)cc1)c1cccc(C(=O)NCc2ccc(F)cc2)c1', '<', 4.00),
  ('COc1ccc(C(=O)NCc2ccc(C)cc2)cc1C(=O)NCc1ccc(C)cc1', '<', 4.00);

* * *

The entries below come with measured pIC50 values attached.
target: MMP-9FL (full length Gelatinase B) (Homo sapiens); experiment: Thiopeptolide hydrolysis assay, MMP-9; format: biochemical; settings: Table VI, synthesis examples; read-out: MMP09
Sequence (P14780 94-707): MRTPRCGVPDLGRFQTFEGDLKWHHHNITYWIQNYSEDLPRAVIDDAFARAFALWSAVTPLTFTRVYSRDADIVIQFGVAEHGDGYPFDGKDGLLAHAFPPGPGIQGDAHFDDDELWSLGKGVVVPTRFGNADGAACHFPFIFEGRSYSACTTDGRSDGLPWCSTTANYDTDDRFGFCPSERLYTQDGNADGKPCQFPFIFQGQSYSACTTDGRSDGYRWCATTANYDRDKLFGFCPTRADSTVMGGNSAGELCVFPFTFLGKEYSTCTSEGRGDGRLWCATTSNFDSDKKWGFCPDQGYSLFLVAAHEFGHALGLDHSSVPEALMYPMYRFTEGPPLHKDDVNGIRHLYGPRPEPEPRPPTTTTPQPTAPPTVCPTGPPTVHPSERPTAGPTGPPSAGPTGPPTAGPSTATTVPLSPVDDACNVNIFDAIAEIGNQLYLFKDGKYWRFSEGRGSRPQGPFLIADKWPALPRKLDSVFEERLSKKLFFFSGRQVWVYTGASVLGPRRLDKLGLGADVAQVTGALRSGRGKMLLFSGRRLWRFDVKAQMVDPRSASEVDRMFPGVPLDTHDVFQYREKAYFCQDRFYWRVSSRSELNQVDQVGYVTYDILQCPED
pIC50: −log10 of the molar value.
RESULT_TYPE: pIC50

INSERT INTO results (compound, result_type, recorded_result) VALUES
  ('CN1C(=O)N(Cc2ccccc2)S(=O)(=O)c2cc(C(=O)OCc3ccccc3)ccc21 [compound 62]', 'pIC50', '< 4.00'),
  ('COc1ccc(CNC(=O)c2ccc3c(c2)S(=O)(=O)N(Cc2ccc([N+](=O)[O-])cc2)C(=O)N3C)cc1 [compound 65]', 'pIC50', '< 4.52'),
  ('CN1C(=O)N(Cc2ccccc2)S(=O)(=O)c2cc(C(=O)NCc3ccccc3)ccc21 [compound 63]', 'pIC50', '< 4.52');

* * *

target: MMP-13CD (catalytic domain of collagenase 3) (Homo sapiens); assay: Thiopeptolide hydrolysis assay, MMP-13; conditions: MMP13 IC50 (μM), Table 1b
Where a name gives a salt, the structure may show the parent alone.
Entries and their measured IC50 follow.
RESULT_TYPE: IC50 (µM)

INSERT INTO measurements (molecule, recorded_result) VALUES
  ('COc1ccc(CNC(=O)c2cn3c(=O)n(Cc4ccc(C(=O)OCCN(C)C)cc4)c(=O)c(C)c3s2)cc1 [hydrochloride]', 0.0455),
  ('Cc1c(=O)n(Cc2ccc(C#N)cc2)c(=O)n2cc(C(=O)NCc3ccncc3)sc12 [hydrochloride]', 0.0547),
  ('O=C(NCc1ccccc1)c1cn2c(=O)n(Cc3ccncc3)c(=O)cc2s1 [hydrochloride]', 1.8);

* * *

# pIC50 per record follows
molecular target: MMP-3CD (catalytic domain of stromelysin) (Homo sapiens, UniProt P08254); assay: Thiopeptolide hydrolysis assay, MMP-3; assay type: biochemical; conditions: Table 1b; read-out: MMP03 IC50;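 also: inhibition of thiopeptolide substrate (100 µM) cleavage by the MMP-3 catalytic domain, detected with DTNB at pH 6.0 with CaCl2, hydrolysis compared against runs lacking inhibitor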
pIC50: −log10 of the molar value. Counter-ions that a name gives are not always drawn.
RESULT_TYPE: pIC50

INSERT INTO results (molecule, result_type, recorded_result) VALUES
  ('Cc1c(=O)n(Cc2ccc(F)cc2)c(=O)n2cc(C(=O)NCc3ccncc3)sc12 [hydrochloride]', 'pIC50', '< 4.52'),
  ('Cc1c(=O)n(Cc2ccccc2)c(=O)n2cc(C(=O)NCc3ccc(F)c(F)c3)sc12', 'pIC50', '< 4.52'),
  ('Cc1c(=O)n(Cc2ccc(C(=O)N3CCOCC3)cc2)c(=O)n2cc(C(=O)NCc3ccncc3)sc12 [hydrochloride]', 'pIC50', '< 4.00'),
  ('Cc1nc(Cn2c(=O)c(C)c3sc(C(=O)NCc4ccc(F)cc4)cn3c2=O)cs1', 'pIC50', '< 4.52'),
  ('Cc1c(=O)n(Cc2ccccc2)c(=O)n2cc(C(=O)NCc3ccc(F)cc3)sc12', 'pIC50', '< 4.00');

* * *

# pIC50 values compiled below
biological target: MMP-13CD (catalytic domain of collagenase 3) (Homo sapiens, UniProt P45452); assay: biochemical
pIC50: −log10 of the molar value.
RESULT_TYPE: pIC50

INSERT INTO assay_data (compound, recorded_result) VALUES
  ('Cn1c(=O)n(Cc2ccccc2)c(=O)c2cc(C(=O)NCc3ccc4c(c3)OCO4)ccc21 [Synthesis Example 24]', 8.30),
  ('Cn1c(=O)n(Cc2ccccc2)c(=O)c2cc(C(=O)OCc3ccccc3)ccc21 [Synthesis Example 42]', 7.51),
  ('O=C(NCc1ccc2c(c1)OCO2)c1ccc2[nH]c(=O)n(Cc3cccs3)c(=O)c2c1 [Synthesis Example 30]', 7.54),
  ('O=C(OCc1ccccc1)c1ccc2c(c1)c(=O)n(Cc1ccncc1)c(=O)n2Cc1ccccc1', 5.92),
  ('Cn1c(=O)n(Cc2ccccc2)c(=O)c2cc(C(=O)NCc3ccc4c(c3)OCO4)cnc21 [Synthesis Example 49]', 8.15),
  ('COc1ccc(CNC(=O)c2cnc3c(c2)c(=O)n(Cc2ccc(C(=O)O)cc2)c(=O)n3C)cc1 [Synthesis Example 50]', 8.80),
  ('O=C(NCc1ccc2c(c1)OCO2)c1ccc2[nH]c(=O)n(Cc3ccccc3)c(=O)c2c1 [Synthesis Example 23]', 7.68),
  ('O=C(OCc1ccccc1)c1ccc2[nH]c(=O)n(Cc3ccccc3)c(=O)c2c1 [Synthesis Example 41]', 7.54),
  ('O=C(NCc1ccncc1)c1ccc2[nH]c(=O)n(Cc3ccccc3)c(=O)c2c1', 6.74),
  ('COc1ccc(Cn2c(=O)c3cc(C(=O)NCc4ccc5c(c4)OCO5)ccc3n(C)c2=O)cc1 [Synthesis Example 28]', 8.05);

* * *

target: MMP-13CD (catalytic domain of collagenase 3) (Homo sapiens); assay: Thiopeptolide hydrolysis assay, MMP-13; conditions: MMP13 IC50 μM, Table IVb;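 also: inhibition of enzymatic thiopeptolide substrate cleavage (100 µM) in pH 6.0 MES buffer with CaCl2 and DTNB, comparing hydrolysis with versus without inhibitor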
RESULT_TYPE: IC50

INSERT INTO assay_data (compound, test_target, recorded_result) VALUES
  ('COC(=O)c1ccc(Cn2c(=O)c3cc(C(=O)NCc4ccc(F)cc4)ccc3n(C)c2=O)cc1', 'MMP-13CD (catalytic domain of collagenase 3) (Homo sapiens)', '0.01 µM'),
  ('CCOC(=O)COc1ccc(CNC(=O)c2ccc3c(c2)c(=O)n(Cc2ccccc2)c(=O)n3C)cc1', 'MMP-13CD (catalytic domain of collagenase 3) (Homo sapiens)', '0.72 µM'),
  ('COc1ccc(CNC(=O)c2ccc3c(c2)c(=O)n(Cc2ccc(-c4noc(=O)[nH]4)cc2)c(=O)n3C)cc1', 'MMP-13CD (catalytic domain of collagenase 3) (Homo sapiens)', '0.0015 µM'),
  ('Cn1c(=O)n(Cc2ccccc2)c(=O)c2cc(C(=O)NCc3ccc(C#N)cc3)ccc21', 'MMP-13CD (catalytic domain of collagenase 3) (Homo sapiens)', '0.34 µM'),
  ('COc1cccc(CNC(=O)c2ccc3c(c2)c(=O)n(Cc2ccc(C(=O)O)cc2)c(=O)n3C)c1', 'MMP-13CD (catalytic domain of collagenase 3) (Homo sapiens)', '0.0009 µM'),
  ('CCn1c(=O)n(Cc2cccc(F)c2)c(=O)c2cc(C(=O)NCc3cccnc3)ccc21', 'MMP-13CD (catalytic domain of collagenase 3) (Homo sapiens)', '0.36 µM'),
  ('Cn1c(=O)n(Cc2ccc(Cl)cc2)c(=O)c2cc(C(=O)NCc3ccncc3)ccc21', 'MMP-13CD (catalytic domain of collagenase 3) (Homo sapiens)', '0.053 µM'),
  ('COC(=O)c1ccc(Cn2c(=O)c3cc(C(=O)NCc4cc[n+]([O-])cc4)ccc3n(C)c2=O)cc1', 'MMP-13CD (catalytic domain of collagenase 3) (Homo sapiens)', '0.1 µM'),
  ('COc1ccc(CNC(=O)c2ccc3c(c2)c(=O)n(-c2ccc(CC(=O)O)cc2)c(=O)n3C)cc1', 'MMP-13CD (catalytic domain of collagenase 3) (Homo sapiens)', '8 µM'),
  ('Cn1c(=O)n(Cc2ccc(F)c(Cl)c2)c(=O)c2cc(C(=O)NCc3ccncc3)ccc21', 'MMP-13CD (catalytic domain of collagenase 3) (Homo sapiens)', '0.026 µM'),
  ('Cn1c(=O)n(Cc2ccc(F)cc2)c(=O)c2cc(C(=O)NCc3ccncc3)ccc21', 'MMP-13CD (catalytic domain of collagenase 3) (Homo sapiens)', '0.071 µM'),
  ('Cn1c(=O)n(Cc2ccc(CC(=O)O)cc2)c(=O)c2cc(C(=O)NCc3ccncc3)ccc21', 'MMP-13CD (catalytic domain of collagenase 3) (Homo sapiens)', '0.011 µM'),
  ('COc1ccc(CNC(=O)c2ccc3[nH]c(=O)n(Cc4ccc(N(C)C)cc4)c(=O)c3c2)cc1', 'MMP-13CD (catalytic domain of collagenase 3) (Homo sapiens)', '0.075 µM'),
  ('Cn1c(=O)n(Cc2ccccc2)c(=O)c2cc(C(=O)CCc3ccccc3)ccc21', 'MMP-13CD (catalytic domain of collagenase 3) (Homo sapiens)', '2.9 µM'),
  ('COc1cc(CNC(=O)c2ccc3c(c2)c(=O)n(Cc2ccc(F)cc2)c(=O)n3C)ccn1', 'MMP-13CD (catalytic domain of collagenase 3) (Homo sapiens)', '0.011 µM'),
  ('COC(=O)Cn1c(=O)n(Cc2ccccc2)c(=O)c2cc(C(=O)NCc3ccc4c(c3)OCO4)ccc21', 'MMP-13CD (catalytic domain of collagenase 3) (Homo sapiens)', '0.16 µM'),
  ('COc1ccc(CNC(=O)c2ccc3c(c2)c(=O)n(Cc2ccc(C(=O)O)c(Cl)c2)c(=O)n3C)cc1', 'MMP-13CD (catalytic domain of collagenase 3) (Homo sapiens)', '0.004 µM'),
  ('Cn1c(=O)n(Cc2ccccc2)c(=O)c2cc(C(=O)OC/C=C/c3ccncc3)ccc21', 'MMP-13CD (catalytic domain of collagenase 3) (Homo sapiens)', '0.385 µM'),
  ('COc1ccc(CNC(=O)c2ccc3c(c2)c(=O)n(Cc2ccc(N)cc2)c(=O)n3C)cc1', 'MMP-13CD (catalytic domain of collagenase 3) (Homo sapiens)', '0.0093 µM'),
  ('COc1ccc(CNC(=O)c2ccc3c(c2)c(=O)n(Cc2ccc(C(=O)O)c(OC)c2)c(=O)n3C)cc1', 'MMP-13CD (catalytic domain of collagenase 3) (Homo sapiens)', '0.0045 µM'),
  ('COc1ccc(CNC(=O)c2ccc3c(c2)c(=O)n(C/C=C/c2ccncc2)c(=O)n3C)cc1', 'MMP-13CD (catalytic domain of collagenase 3) (Homo sapiens)', '0.035 µM'),
  ('COc1cc(CNC(=O)c2ccc3c(c2)c(=O)n(Cc2ccc(Cl)cc2)c(=O)n3C)ccn1', 'MMP-13CD (catalytic domain of collagenase 3) (Homo sapiens)', '0.011 µM'),
  ('Cn1c(=O)n(Cc2ccc(O)cc2)c(=O)c2cc(C(=O)NCc3ccncc3)ccc21', 'MMP-13CD (catalytic domain of collagenase 3) (Homo sapiens)', '0.057 µM'),
  ('COc1ccc(CNC(=O)c2ccc3c(c2)c(=O)n(Cc2ccc(C(=O)OCCN(C)C)c(C)c2)c(=O)n3C)cc1', 'MMP-13CD (catalytic domain of collagenase 3) (Homo sapiens)', '0.11 µM'),
  ('COc1ccc(CNC(=O)c2ccc3c(c2)c(=O)n(Cc2ccc(S(N)(=O)=O)cc2)c(=O)n3C)cc1', 'MMP-13CD (catalytic domain of collagenase 3) (Homo sapiens)', '0.008 µM'),
  ('CC(c1cccc2ccccc12)n1c(=O)c2cc(C(=O)NCc3ccc4c(c3)OCO4)ccc2n(C)c1=O (stereo not drawn)', 'MMP-13CD (catalytic domain of collagenase 3) (Homo sapiens)', '9.4 µM'),
  ('Cn1c(=O)n(Cc2ccncc2)c(=O)c2cc(C(=O)NCc3ccc(O)cc3)ccc21', 'MMP-13CD (catalytic domain of collagenase 3) (Homo sapiens)', '0.051 µM');
